Provenance of the data: the supplement of paper PMC11616607

System: Ovsaho
Test: drug sensitivity score (DSS) from 5-point dose-response viability curve (DSS (area-under-curve based score)); higher = more sensitive (stronger growth inhibition or killing); extreme values may be limits of the assay
Settings: exposure time: 72 h; concentration range: 5 concentrations over 10,000-fold range
Quick rule: drug sensitivity score of at least 8 means 1, below that means 0.

These solved cases illustrate the format of a correct answer.
O=C1Cc2cc(C(=O)NC3C[C@H]4CC[C@@H](C3)N4S(=O)(=O)CC3CCN(CCCC(F)(F)F)CC3)c(Cl)cc2N1 (stereo partly drawn) ... 0
COc1ccc(CCc2nc3cc(-c4c(C)noc4C)ccc3n2C[C@H](C)N2CCOCC2)cc1Cl ... 0
CCN1CCN(c2ccc(Nc3cc(N(C)C(=O)Nc4c(Cl)c(OC)cc(OC)c4Cl)ncn3)cc2)CC1 ... 0
O=C1NC(=O)[C@@H](c2cn3c4c(cccc24)CCC3)[C@@H]1c1c[nH]c2ccccc12 [Tivantinib] ... 0
Cc1nc(Nc2n[nH]c3c2CN(C(=O)N[C@H](CN(C)C)c2ccccc2)C3(C)C)c2sccc2n1 ... 1
COc1ccc(-c2nc(N3CCOCC3)c3sc(CN(C)c4ncc(C(=O)NO)cn4)cc3n2)cn1 ... 1

Asked: Is drug sensitivity score for CCOCc1nc2c(N)nc3ccccc3c2n1CC(C)(C)O at or above 8?
Given back: 0
